- Tested on: Serratia marcescens ES-75
- Protocol text: In vitro antibacterial activity, Serratia marcescens ES-75 (Tables 2-6)
- Type: cell-based
- Reported conditions: Serratia marcescens ES-75
Value kind: MIC (µg/mL)

# Molecule, MIC (µg/mL)
rows = [
    ("CO/N=C(\\C(=O)N[C@@H]1C(=O)N2C(C(=O)O)=C(/C=C/C3CCCO3)CS[C@H]12)c1csc(N)n1 (single isomer, unassigned) [48 B]", 0.1),
]

a: Nc1nc(/C(=N/O)C(=O)N[C@@H]2C(=O)N3C(C(=O)O)=C(/C=C/C4CCCO4)CS[C@H]23)cs1 (single isomer, unassigned) [50 A]
b: CO/N=C(\C(=O)N[C@@H]1C(=O)N2C(C(=O)O)=C(/C=C/C3CCCO3)CS[C@H]12)c1csc(N)n1 (single isomer, unassigned) [48 A]
c: Nc1nc(/C(=N/O)C(=O)N[C@@H]2C(=O)N3C(C(=O)O)=C(/C=C/C4CCCO4)CS[C@H]23)cs1 (single isomer, unassigned) [50 B]
# ascending order, key=MIC Please write the labels in the order that was asked for.
b, a, c

###

Each entry below carries its recorded MIC.
- Test system: Klebsiella pneumoniae EK-6
- Protocol text: In vitro antibacterial activity, Klebsiella pneumoniae EK-6 (Tables 2-6)
- Type: cell-based
- Reported conditions: Klebsiella pneumoniae, EK6
// units = µg/mL; emit number, no label

# Compound, MIC / µg/mL
records = [
    ("CNC(=O)OC/C=C\\C1=C(C(=O)[O-])N2C(=O)C(NC(=O)/C(=N\\O)c3csc(N)n3)[C@H]2SC1.[Na+] (stereo partly drawn) [Example 33]", 0.012),
    ("COc1ncncc1/C=C\\C1=C(C(=O)[O-])N2C(=O)[C@@H](NC(=O)/C(=N\\O)c3csc(N)n3)[C@H]2SC1.[Na+] [Example 25]", 0.4),
    ("CN(C)C(=O)OC/C=C\\C1=C(C(=O)[O-])N2C(=O)C(NC(=O)/C(=N\\O)c3csc(N)n3)[C@H]2SC1.[Na+] (stereo partly drawn) [Example 30]", 0.2),
    ("CO/N=C(\\C(=O)N[C@@H]1C(=O)N2C(C(=O)[O-])=C(/C=C/c3cnccn3)CS[C@H]12)c1csc(N)n1.[Na+] [Example 27]", 0.1),
    ("Nc1nc(/C(=N/O)C(=O)N[C@@H]2C(=O)N3C(C(=O)[O-])=C(/C=C/c4cncnc4N)CS[C@H]23)cs1.[Na+] [Example 23]", 0.025),
]

What value of MIC has been reported for the following compound? CC(C)NC(=O)OC/C=C\C1=C(C(=O)[O-])N2C(=O)C(NC(=O)/C(=N\O)c3csc(N)n3)[C@H]2SC1.[Na+] (stereo partly drawn) [Example 40]
0.1

###

- Tested on: Serratia marcescens ES-75
- Protocol text: In vitro antibacterial activity, Serratia marcescens ES-75 (Tables 2-6)
- Format: cell-based
- Reported conditions: Serratia marcescens, ES75
Each entry below carries its recorded MIC.
// units = µg/mL; emit number, no label

Example results:
# Compound, MIC (µg/mL)
measured = [
    ("COc1ncncc1/C=C\\C1=C(C(=O)[O-])N2C(=O)[C@@H](NC(=O)/C(=N\\O)c3csc(N)n3)[C@H]2SC1.[Na+] [Example 25]", 0.2),
    ("Nc1nc(/C(=N/O)C(=O)NC2C(=O)N3C(C(=O)[O-])=C(/C=C\\COC(=O)NCCCl)CS[C@H]23)cs1.[Na+] (stereo partly drawn) [Example 44]", 0.05),
]

Quick check: MIC on Serratia marcescens ES-75, item CC(C)NC(=O)OC/C=C\C1=C(C(=O)[O-])N2C(=O)C(NC(=O)/C(=N\O)c3csc(N)n3)[C@H]2SC1.[Na+] (stereo partly drawn) [Example 40] ?
0.05

Now give it for CO/N=C(\C(=O)N[C@@H]1C(=O)N2C(C(=O)[O-])=C(/C=C/C3CCC(=O)O3)CS[C@H]12)c1csc(N)n1.[Na+] (stereo partly drawn) [Example 52] too.
0.012

Now give it for CO/N=C(\C(=O)N[C@@H]1C(=O)N2C(C(=O)[O-])=C(/C=C/c3cnccn3)CS[C@H]12)c1csc(N)n1.[Na+] [Example 27] too.
0.05
